Cited source: ChEMBL document CHEMBL4251642

Assay: Cytotoxicity against MDCK cells after 48 hrs by CellTiter96 Aqueous non-radioactive cell proliferation assay
Type: cell-based, Canis lupus familiaris
Details: dog
recorded.endpoint: CC50 at 48 h

- molecule: "CCC(CC)OC1C=C(C(=O)O)C[C@H](N)[C@H]1NC(C)=O (some centres not stated)"
  result: "> 100 µM"
- molecule: "CCC(CC)[C@H](NC(C)=O)[C@@H]1[C@H](O)[C@@H](C(=O)O)C[C@H]1NC(=N)N [PERAMIVIR ANHYDROUS]"
  result: "> 100 µM"
- molecule: "CCC(CC)[C@H](NC(C)=O)[C@@H]1[C@H](OC(=O)NCCCNC(=O)/C=C/c2ccc(O)c(O)c2)[C@@H](C(=O)O)C[C@H]1NC(=N)N"
  result: "> 100 µM"
- molecule: "CCC(CC)[C@H](NC(C)=O)[C@@H]1[C@H](OC(=O)NCCCN)[C@@H](C(=O)O)C[C@H]1NC(=N)N"
  result: "> 100 µM"
- molecule: "CCC(CC)[C@H](NC(C)=O)[C@@H]1[C@H](OC(=O)NCCCOCCCc2ccc(O)c(O)c2)[C@@H](C(=O)O)C[C@H]1NC(=N)N"
  result: "> 100 µM"
- molecule: "CCC(CC)[C@H](NC(C)=O)[C@@H]1[C@H](OC(=O)NCCCO)[C@@H](C(=O)O)C[C@H]1NC(=N)N"
  result: "> 100 µM"
- molecule: "CCC(CC)[C@H](NC(C)=O)[C@@H]1[C@H](OC(=O)NCCCOC(=O)/C=C/c2ccc(O)c(O)c2)[C@@H](C(=O)O)C[C@H]1NC(=N)N"
  result: "> 100 µM"

###

Biological target: Neuraminidase (Influenza A virus (strain A/Wilson-Smith/1933 H1N1) (Influenza A virus(strain A/WS/1933 H1N1)), UniProt P03470)
Sequence (P03470 whole entry): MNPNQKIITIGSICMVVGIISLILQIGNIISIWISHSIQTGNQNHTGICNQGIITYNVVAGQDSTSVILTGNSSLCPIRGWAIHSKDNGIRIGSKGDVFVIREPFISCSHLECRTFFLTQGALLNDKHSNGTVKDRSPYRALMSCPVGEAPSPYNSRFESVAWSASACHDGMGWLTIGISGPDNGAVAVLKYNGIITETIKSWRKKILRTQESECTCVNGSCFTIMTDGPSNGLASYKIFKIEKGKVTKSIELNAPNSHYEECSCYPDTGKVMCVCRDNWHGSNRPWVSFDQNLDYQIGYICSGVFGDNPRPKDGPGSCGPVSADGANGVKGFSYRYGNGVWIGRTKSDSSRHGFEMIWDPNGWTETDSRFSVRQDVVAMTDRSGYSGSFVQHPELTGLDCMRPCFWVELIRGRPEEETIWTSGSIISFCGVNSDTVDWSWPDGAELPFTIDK
pIC50: −log10 of the molar value.
Measured pIC50, listed per entry.

- compound: "CCC(CC)[C@H](NC(C)=O)[C@@H]1[C@H](OC(=O)NCCCOCCCc2ccc(O)c(O)c2)[C@@H](C(=O)O)C[C@H]1NC(=N)N"
  pIC50: 9.17
- compound: "CCC(CC)[C@H](NC(C)=O)[C@@H]1[C@H](OC(=O)NCCCN)[C@@H](C(=O)O)C[C@H]1NC(=N)N"
  pIC50: 9.03
- compound: "CCC(CC)[C@H](NC(C)=O)[C@@H]1[C@H](O)[C@@H](C(=O)O)C[C@H]1NC(=N)N [PERAMIVIR ANHYDROUS]"
  pIC50: 9.32
- compound: "CCC(CC)[C@H](NC(C)=O)[C@@H]1[C@H](OC(=O)NCCCNC(=O)/C=C/c2ccc(O)c(O)c2)[C@@H](C(=O)O)C[C@H]1NC(=N)N"
  pIC50: 9.36
- compound: "CCC(CC)[C@H](NC(C)=O)[C@@H]1[C@H](OC(=O)NCCCOC(=O)/C=C/c2ccc(O)c(O)c2)[C@@H](C(=O)O)C[C@H]1NC(=N)N"
  pIC50: 8.98
- compound: "CCC(CC)[C@H](NC(C)=O)[C@@H]1[C@H](OC(=O)NCCCO)[C@@H](C(=O)O)C[C@H]1NC(=N)N"
  pIC50: 9.19
